- TARGET: CYP3A4 (Homo sapiens, UniProt P08684)
- Sequence (P08684 whole entry): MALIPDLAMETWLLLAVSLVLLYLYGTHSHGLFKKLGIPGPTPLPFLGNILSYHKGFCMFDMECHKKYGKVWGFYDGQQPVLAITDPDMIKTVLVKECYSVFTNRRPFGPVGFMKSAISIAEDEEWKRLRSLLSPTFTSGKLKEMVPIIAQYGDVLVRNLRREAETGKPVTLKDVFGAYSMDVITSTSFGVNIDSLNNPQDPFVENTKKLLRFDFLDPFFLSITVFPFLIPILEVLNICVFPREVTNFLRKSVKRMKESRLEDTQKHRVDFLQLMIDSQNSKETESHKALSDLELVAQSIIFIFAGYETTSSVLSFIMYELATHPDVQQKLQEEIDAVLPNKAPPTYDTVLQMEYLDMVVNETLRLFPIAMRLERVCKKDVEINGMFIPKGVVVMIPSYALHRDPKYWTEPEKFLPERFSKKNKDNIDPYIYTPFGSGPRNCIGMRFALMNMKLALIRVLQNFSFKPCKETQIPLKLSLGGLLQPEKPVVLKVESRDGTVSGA
- PROTOCOL NOTES: Inhibition of CYP3A4 in human microsomes at 10 uM in the presence of NADPH relative to control
- Assay type: ADME, Microsome
OBSERVED PROPERTY: inhibition at 10 µM

Q: Return reported inhibition at 10 µM; argument: COc1cc(C(C)O/C(=N\OC[C@H](O)CO)c2ccc(F)c(F)c2Nc2ccc(I)cc2F)c([N+](=O)[O-])cc1OC (stereo partly specified)
Result: 92.4%

###

- TARGET: CYP2C9 (Homo sapiens, UniProt P11712)
- Sequence (P11712 whole entry): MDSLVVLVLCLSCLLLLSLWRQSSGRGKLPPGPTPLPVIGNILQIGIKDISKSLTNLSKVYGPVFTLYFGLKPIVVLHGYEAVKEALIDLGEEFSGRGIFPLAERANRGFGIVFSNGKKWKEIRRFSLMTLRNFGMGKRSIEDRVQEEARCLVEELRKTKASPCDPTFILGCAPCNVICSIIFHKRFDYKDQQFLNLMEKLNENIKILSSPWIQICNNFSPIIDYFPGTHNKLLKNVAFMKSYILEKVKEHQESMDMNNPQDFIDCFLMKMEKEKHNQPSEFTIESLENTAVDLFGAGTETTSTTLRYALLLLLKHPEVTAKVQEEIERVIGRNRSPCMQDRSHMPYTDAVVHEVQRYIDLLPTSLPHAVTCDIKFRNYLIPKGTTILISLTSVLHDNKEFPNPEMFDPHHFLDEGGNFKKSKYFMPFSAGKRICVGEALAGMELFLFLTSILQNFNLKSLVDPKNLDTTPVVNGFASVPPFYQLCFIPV
- PROTOCOL NOTES: Inhibition of CYP2C9 in human microsomes at 10 uM in the presence of NADPH relative to control
- Format: ADME, Microsome
OBSERVED PROPERTY: inhibition at 10 µM (%)
Numbers only, in %.

Q: Return reported inhibition at 10 µM; argument: COc1cc(C(C)O/C(=N\OC[C@H](O)CO)c2ccc(F)c(F)c2Nc2ccc(I)cc2F)c([N+](=O)[O-])cc1OC (stereo partly specified)
Result: 63.3
